Reported pEC50 values for the following compounds.
target_or_test_system: UniProt P40238
experiment_summary: Stimulation of proliferation of thrombopoietin-dependent cell line UT7/EPO-mpl (WST-8)
cond: concentration yielding growth rate corresponding to 50% of growth of UT-7/EPO-mpl in the presence of 10 ng/mL TPO; 4 days incubation, WST-8
Recall that pEC50 is obtained by taking minus log10 of the concentration measured in molar.

compound	pEC50
COC(=O)c1ccc(C(=O)N/N=C(\C)c2nn(C)c(-c3ccc4c(c3)CCC4)c2O)s1 [compound 6]	7.72
C/C(=N\NC(=S)Nc1cccc(C(=O)O)c1)c1csc(-c2ccc3c(c2)CCC3)c1O [compound 59]	7.27
C/C(=N\NC(=O)c1ccc(C(=O)O)c([N+](=O)[O-])c1)c1csc(-c2ccc3c(c2)CCCC3)c1O [compound 55]	9.40
C/C(=N\NC(=S)Nc1cccc(-c2nnn[nH]2)c1)c1csc(-c2ccc3c(c2)CCO3)c1O [compound 65]	8.25
C/C(=N\NC(=S)Nc1ccc(-c2nnn[nH]2)cc1)c1csc(-c2ccc3c(c2)CCCC3)c1O [compound 62]	8.39

Consider the additional compound presented here.
For UniProt P40238, provide pEC50 of C/C(=N\NC(=O)c1ccc(C(=O)NCc2ccc(C(=O)NCCO)cc2)s1)c1csc(-c2ccc3c(c2)CCO3)c1O [compound 71] please.
8.40

----------
target_or_test_system: human thrombopoietin receptor (c-mpl) (Homo sapiens, UniProt P40238)
Sequence (P40238 26-635): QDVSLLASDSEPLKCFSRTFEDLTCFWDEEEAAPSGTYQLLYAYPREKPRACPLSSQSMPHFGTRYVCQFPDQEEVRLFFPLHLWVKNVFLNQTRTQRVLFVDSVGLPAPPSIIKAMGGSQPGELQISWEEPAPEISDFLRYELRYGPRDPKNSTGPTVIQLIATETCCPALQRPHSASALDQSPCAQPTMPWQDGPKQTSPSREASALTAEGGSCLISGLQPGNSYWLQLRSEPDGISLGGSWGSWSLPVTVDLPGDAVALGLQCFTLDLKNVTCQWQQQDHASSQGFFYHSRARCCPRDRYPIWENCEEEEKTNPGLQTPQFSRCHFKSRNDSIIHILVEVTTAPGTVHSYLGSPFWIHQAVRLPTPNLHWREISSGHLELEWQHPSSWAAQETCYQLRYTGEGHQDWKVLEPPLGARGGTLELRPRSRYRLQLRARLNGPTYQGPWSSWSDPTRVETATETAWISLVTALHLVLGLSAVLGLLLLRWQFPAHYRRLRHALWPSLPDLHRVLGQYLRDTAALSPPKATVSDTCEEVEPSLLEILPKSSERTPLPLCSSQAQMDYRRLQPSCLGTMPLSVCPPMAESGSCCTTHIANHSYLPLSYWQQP
experiment_summary: Stimulation of proliferation of thrombopoietin-dependent cell line UT7/EPO-mpl (WST-8)
cond: concentration yielding growth rate corresponding to 50% of growth of UT-7/EPO-mpl in the presence of 10 ng/mL TPO; 4 days incubation, WST-8
Mark yes (1) only when EC50 stays strictly below 10 nM. Values equal to the cut-off are no (0).

The following compounds have reported results that may help.
compound	assigned_label
C/C(=N\NC(=S)Nc1ccc(C(=O)O)c(Cl)c1)c1csc(-c2ccc3c(c2)CCC3)c1O [compound 41]	yes (1)
C/C(=N\NC(=S)Nc1ccc(C(=O)O)c(Cl)c1)c1csc(-c2ccc3c(c2)CCCC3)c1O [compound 43]	yes (1)
C/C(=N\NC(=O)c1ccc(C(=O)NCCc2ccncc2)s1)c1csc(-c2ccc3c(c2)CCCC3)c1O [compound 16]	yes (1)

Identify whether the compound C/C(=N\NC(=O)c1ccc(C(=O)O)c([N+](=O)[O-])c1)c1csc(-c2ccc3c(c2)CCC3)c1O [compound 51] records EC50 below 10 nM.
yes (1)

Further, for C/C(=N\NC(=S)N1CCC(C(=O)O)CC1)c1csc(-c2ccc3c(c2)CCC3)c1O [compound 48] ?
yes (1)

Further, for C/C(=N\NC(=S)Nc1cccc(C(=O)O)c1)c1csc(-c2ccc3c(c2)CCCC3)c1O [compound 17] ?
no (0)

The values you see were collected from patent US8889732B2.
